system: DLD-1; assay: NCI tumour cell line growth inhibition, 48 h
Calls of active or inactive are those of the source. Cut-off read from the data, not from the text of the source: active = GI50 up to about 1.1 µM and inactive = higher.
Give GI50 for every item shown.

[[record]]
molecule = "C#CN1C(=O)c2c(c(-c3ccccc3)c(-c3ccc(Oc4ccc(-c5c(-c6ccccc6)c6c(c(-c7ccccc7)c5-c5ccccc5)C(=O)N(C#C)C6=O)cc4)cc3)c(-c3ccccc3)c2-c2ccccc2)C1=O"
value_measured = "> 100 µM (inactive)"

[[record]]
molecule = "CC(=O)CC(=O)CCC(=O)Nc1cccc(C(F)(F)F)c1"
value_measured = "> 100 µM (inactive)"

[[record]]
molecule = "O=C(CC(=O)c1cccc2ccccc12)C(=O)NC1C2CC3CC(C2)CC1C3 (stereo not drawn)"
value_measured = "> 100 µM (inactive)"


Batch: GI50 for all items listed.
1. CCCCCN(CCCCC)C(=O)[C@@H](CCC(=O)OCc1ccccc1)NC(=O)c1cc2ccccc2[nH]1
2. CC(C)N/C(N)=N/C#N
3. CCCCCCC(O)C/C=C/CCCCCC/C(C(=O)OC)=C(/O)C(=O)OCC (stereo not drawn)
4. CCOC(=O)C[n+]1ccc2c([nH]c3cc(OC)ccc32)c1C

> 100 µM (inactive)
> 100 µM (inactive)
> 100 µM (inactive)
> 100 µM (inactive)

Batch: GI50 for all items listed.
1. O=C(c1ccc(Cl)cc1)C1OC12C(=O)Nc1ccccc12 (stereo not drawn)
2. Nc1nc2ncn(CC(O)CO)c2c(=S)[nH]1 (stereo not drawn)
3. CCC(=O)c1c(NOC2OC(COC(C)=O)C(OC(C)=O)C(OC(C)=O)C2OC(C)=O)nc(OC)n(C)c1=O (stereo not drawn)
4. C=CC1(NC(=O)c2ccccc2)CCC(C(C)(C)C)CC1 (stereo not drawn)
5. C/C(=C\C(=O)Nc1ccc2[nH]nnc2c1)Nc1ccc2[nH]nnc2c1
6. COC(=O)c1cccc2cccc(C(=O)Nc3ccc(C)cc3C)c12

1. 2.42 µM (inactive)
2. > 100 µM (inactive)
3. > 100 µM (inactive)
4. 36.6 µM (inactive)
5. > 100 µM (inactive)
6. > 100 µM (inactive)

* * *

test system: UACC-257; experiment: NCI tumour cell line growth inhibition, 48 h
The source made the active and inactive calls. No stated cut-off is given here; in the data, active = GI50 up to about 1.1 µM and inactive = higher. Where a SMILES comes first, the peptide text is derived from it. The star is where a group is joined. Boc = CC(C)(C)OC(=O)*; OSu = O=C1CCC(=O)N1O*
Tick one outcome: TRUE for active, FALSE for inactive

Field: example entries. Status: answers known.
[[record]]
molecule = "COc1ccc2c(c1)CCc1c(-c3n[nH]c4c3CCc3cc(OC)ccc3-4)n[nH]c1-2"
label_value = "FALSE"

[[record]]
molecule = "[N-]=[N+]=CC(=O)COC(=O)c1ccccc1"
label_value = "FALSE"

[[record]]
molecule = "COc1cccc(N2C(=O)/C(=C\\c3ccccc3)SC2c2cc(OC)c(OC)c(OC)c2)c1 (stereo unspecified)"
label_value = "FALSE"

[[record]]
molecule = "COc1c2c(cc3oc(=O)ccc13)OC(C)(C)C=C2"
label_value = "FALSE"

[[record]]
molecule = "BrCC[P+](c1ccccc1)(c1ccccc1)c1ccccc1"
label_value = "FALSE"

[[record]]
molecule = "C=CC(=C)CCC(Br)C(C)(C)Br (stereo unspecified)"
label_value = "FALSE"

[[record]]
molecule = "C[N+](C)([O-])CCCNc1c2ccccc2nc2cccc([N+](=O)[O-])c12"
label_value = "TRUE"

[[record]]
molecule = "COC(=O)C(Cc1ccccc1)C(=O)NC(CNC(=O)OCc1ccccc1)C(=O)OCc1ccccc1 (stereo unspecified)"
label_value = "FALSE"


Assay outcome for CC(NC(=O)C(NC(=O)OC(C)(C)C)C(C)C)C(=O)NCC(=O)ON1C(=O)CCC1=O (stereo not drawn) (Boc-Val-Ala-Gly-OSu; configuration not given here) : what was it?
FALSE

Assay outcome for O=NN(CCCl)C(=O)NCCCl : what was it?
FALSE

Assay outcome for O=C(Oc1cccc(Cl)c1)c1cc2cc(CCl)ccc2oc1=O : what was it?
FALSE

Assay outcome for CC(=O)CC(=O)CCC(=O)Nc1cccc(C(F)(F)F)c1 : what was it?
FALSE

Assay outcome for CC(C)C(=O)Nc1nc2c(ncn2C2OC(CO)C(O)C2O)c(=O)[nH]1 (stereo unspecified) : what was it?
FALSE

Assay outcome for CCC(=O)c1cc(C(=O)C(=S)SC)cc(C(=O)C(=S)SC)c1 : what was it?
FALSE

Assay outcome for C=CCOC(OCC=C)/C(Br)=C/C : what was it?
FALSE

Assay outcome for CCOc1cc2c(cc1OC(C)=O)C(=O)CC[C@H]1C3CC[C@H](OC(C)=O)[C@@]3(C)CC[C@H]21 (stereo partly specified) : what was it?
FALSE

Assay outcome for CCCCOc1ccc(NC(=N)Nc2ccc(Cl)cc2)cc1 : what was it?
TRUE

Assay outcome for COc1ccccc1NC(=S)N/N=C(/c1ccccc1)c1ccccn1 : what was it?
TRUE

Assay outcome for COC(CN(C)C(=O)C(C)NC(=O)c1ccccc1)OC (stereo unspecified) : what was it?
FALSE

Assay outcome for CC(C(=O)OCc1ccccc1)(c1ccco1)N1C(=O)OC(c2ccccc2)C1c1ccccc1 (stereo unspecified) : what was it?
FALSE

Assay outcome for OC12CCCCCC1(N1CCOCC1)c1ccccc12 (stereo unspecified) : what was it?
FALSE
